Below, each entry is listed with its recorded microsomal CLint at 1 μM.
- experimental_details: Metabolic stability in human liver microsomes
- Format: in vitro ADME
readout_label: microsomal CLint at 1 μM (µL/min/mg)

1. CC(C)(C)C1=CC(=NNC(=O)c2ccc([N+](=O)[O-])cc2)C=C(C(C)(C)C)C1=O [KGW44]	21
2. CC(C)(C)C1=CC(=NNc2ccc([N+](=O)[O-])cc2[N+](=O)[O-])C=C(C(C)(C)C)C1=O [KGW59]	16

* * *

Below, each entry is listed with its recorded IC50.
- System: human liver cells (HC-04)
- experimental_details: Mammalian cell cytotoxicity screen
- Assay type: cell-based
- measurement_setup: HC04, 24 h, read-out: HCO4 IC50
readout_label: IC50

1) CC(C)(C)C1=CC(=NNc2ccc([N+](=O)[O-])cc2[N+](=O)[O-])C=C(C(C)(C)C)C1=O [KGW59]	> 100 µM
2) CC(C)(C)C1=CC(=NNC(=O)c2ccc([N+](=O)[O-])cc2)C=C(C(C)(C)C)C1=O [KGW44]	> 100 µM

* * *

- experimental_details: Kinetic aqueous solubility by nephelometry
- Assay type: physicochemical
- measurement_setup: PBS pH 6.5, pH 6.5, aqueous buffer, kinetic from dmso stock
Below, each entry is listed with its recorded solubility kinetic at 30 min.
readout_label: solubility kinetic at 30 min

1. CC(C)(C)C1=CC(=NNc2ccc([N+](=O)[O-])cc2[N+](=O)[O-])C=C(C(C)(C)C)C1=O	< 1.6 µg/mL
2. CC(C)(C)C1=CC(=NNC(=O)c2ccc([N+](=O)[O-])cc2)C=C(C(C)(C)C)C1=O	< 1.6 µg/mL
